# System: Staphylococcus aureus
# METHOD: Inhibition of Staphylococcus aureus MetRS assessed as decrease in […] incorporation at 100 uM by SPA
MEASUREMENT_LABEL: inhibition (%)

>  <MOLECULE>
O=C(/N=N/c1nc(Nc2ccccc2)nc(N2CCOCC2)n1)Nc1ccc(Cl)cc1

>  <inhibition / %>
81

$$$$
>  <MOLECULE>
O=C(CSc1nc2ccccc2n1Cc1ccc(Cl)cc1)N/N=C/c1ccccc1O

>  <inhibition / %>
82

$$$$
>  <MOLECULE>
COc1ccc(O)c(/C=N/NC(=O)CCC(=O)Nc2ccc(Br)cc2)c1

>  <inhibition / %>
72

$$$$

1 = O=C(NC(C(=O)N/N=C/c1ccccc1O)c1n[nH]c(=O)c2ccccc12)c1ccccc1 (configuration not stated)
2 = O=C(Nc1ccccc1O)c1cc(C(=O)Nc2ccccc2O)cc(N2C(=O)c3ccccc3C2=O)c1
Query: Form field 'greater inhibition' accepts 1 or 2 ; which applies? Returns: label corresponding to the selected item.
Result: 2
(2: 92%, 1: 52%)

P = O=C(Nc1cc(Cl)ccc1O)c1cnn2c1NC(c1ccc(Br)cc1)CC2C(F)(F)F (configuration not stated)
Q = O=C(CNC(=O)c1ccc(Cl)cc1)N/N=C/c1c(O)ccc2ccccc12
Query: Form field 'greater inhibition' accepts P or Q ; which applies? Returns: label corresponding to the selected item.
Result: Q
(Q: 80%, P: 47%)

a = S=C(Nc1ccccc1)Nc1nc2ccccc2n1CCOc1ccc(Cl)cc1
b = O=C(Cn1nnc(-c2ccccc2)n1)N/N=C/c1ccc(O)cc1O
Query: Please let me know which one, a or b , has a lower measured inhibition value. Returns: label corresponding to the selected item.
Result: b

---

# Test system: Staphylococcus aureus
# METHOD: Inhibition of Staphylococcus aureus MetRS assessed as decrease in […] incorporation at 100 uM by SPA
MEASUREMENT_LABEL: inhibition (%)

Solved entries:
>  <COMPOUND>
Cc1ccc(S(=O)(=O)N2CCC(C(=O)N/N=C/c3ccccc3O)CC2)cc1

>  <inhibition (%)>
61

$$$$
>  <COMPOUND>
O=C(Nc1cccc(O)c1)c1cnn2c1NC(c1cccs1)CC2C(F)(F)F (stereo not given)

>  <inhibition (%)>
83

$$$$
>  <COMPOUND>
O=C(CCCOc1ccc(Cl)cc1Cl)N/N=C/c1ccccc1O

>  <inhibition (%)>
86

$$$$

a = O=C(CSc1ccc2ccccc2n1)N/N=C/c1ccccc1O
b = COc1ccc(O)c(/C=N/NC(=O)CNC(=O)c2ccc(Cl)cc2)c1
Query: Form field 'greater inhibition' accepts a or b ; which applies? Returns: label corresponding to the selected item.
Result: b

---

# System: Staphylococcus aureus
# METHOD: Inhibition of Staphylococcus aureus MetRS assessed as decrease in […] incorporation at 100 uM by SPA
MEASUREMENT_LABEL: inhibition (%)

>  <COMPOUND>
Cc1cc(Cl)ccc1NC(=O)CCC(=O)N/N=C/c1ccccc1O

>  <TARGET_UNDER_TEST>
Staphylococcus aureus

>  <UNIT_STRING>
%

>  <inhibition>
91

$$$$
>  <COMPOUND>
O=C(Nc1cccc(O)c1)c1cnn2c1NC(c1ccc(Br)cc1)CC2C(F)(F)F (stereo not drawn)

>  <TARGET_UNDER_TEST>
Staphylococcus aureus

>  <UNIT_STRING>
%

>  <inhibition>
55

$$$$
>  <COMPOUND>
S=C(Nc1ccccc1)Nc1nc2ccccc2n1CCOc1ccccc1Cl

>  <TARGET_UNDER_TEST>
Staphylococcus aureus

>  <UNIT_STRING>
%

>  <inhibition>
66

$$$$

The reported numbers originate from ChEMBL document CHEMBL1155119.
